As shown below, each of these variants has a reported abundance fitness value.
B1: MEF2-activating motif and SAP domain-containing transcriptional regulator, residues 170 to 204; numbered along this chain, Q6ZN01 (parent)
chain: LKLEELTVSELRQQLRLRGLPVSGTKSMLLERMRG

# Variants of: B1
# method_summary: abundance fitness (aPCA) (normalised: wild type 0, dead -1); higher = more abundant; growth selection in yeast, the domain comes from the species named
# details: Homo sapiens

Noted for L1N : its abundance fitness reads 0.092

Noted for P21H : its abundance fitness reads -0.727

Noted for V8K : its abundance fitness reads -0.066

Noted for L29E : its abundance fitness reads -0.22

Noted for M28V : its abundance fitness reads 0.05

Noted for S23K : its abundance fitness reads -0.198

Noted for R34E : its abundance fitness reads -0.089

Noted for L30A : its abundance fitness reads -0.356

Noted for P21S : its abundance fitness reads -0.129

Noted for T25L : its abundance fitness reads -0.581

Noted for L11V : its abundance fitness reads -0.59

Noted for K26G : its abundance fitness reads -0.78
